All values here come from patent US5208223A.

test system: porcine pancreatic PLA2 (Sus scrofa, UniProt P00592)
Construct: purchased Sigma
Sequence (P00592 23-146): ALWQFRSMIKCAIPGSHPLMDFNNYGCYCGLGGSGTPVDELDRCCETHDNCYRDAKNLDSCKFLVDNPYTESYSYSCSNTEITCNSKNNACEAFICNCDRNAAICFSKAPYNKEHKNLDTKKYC
assay text: MPLA2 assay: in vitro porcine pancreatic phospholipase A2, mixed micelle design, substrate 2 nM
Assay type: biochemical
test parameters: subs. con. 2
Description: Phospholipase A2 activity was measured by a radiochemical assay in which labeled synthetic phosphatidylcholine substrate is converted by porcine pancreatic PLA2 to free radiolabeled arachidonate and lyso PC. […] Radioactivity (cpm) in samples is quantitated by liquid scintillation counting. […] Labeled arachidonate extracted with CHCl3 /MeOH is separated on silica gel G TLC plates (Analtech). […] A 20 μL sample is counted in 10 ml of Beckman Redi-solv HP and spotted on silica gel G plates. […]
IC50 listing for selected compounds.
Give the value in µM but do not write µM after it.

CCCCCCCCCCCCCCCCOCC(COP(=O)([O-])OCC[N+](C)(C)C)C[S+]([O-])CCCCCCCCCCCCCCCC (stereo not drawn)    3.86
CCCCCCCCCCCCCCCCOCC(COP(=O)([O-])OCC[N+](C)(C)C)OC(=O)CBr (stereo not drawn)    8.13

Q) Find the measured IC50: item CCCCCCCCCCCCCCCCOCC(COP(=O)([O-])OCC[N+](C)(C)C)OC(=O)CCl (stereo not drawn) , target or system porcine pancreatic PLA2 (Sus scrofa, UniProt P00592).
A) 17.4

Q) Find the measured IC50: item CCCCCCCCCCCCCCCCS(=O)(=O)CCCOP(=O)([O-])OCC[N+](C)(C)C , target or system porcine pancreatic PLA2 (Sus scrofa, UniProt P00592).
A) 37.2

Q) Find the measured IC50: item CCCCCCCCCCCCCCCCOCC(COP(=O)([O-])OCC[N+](C)(C)C)CSCCCCCCCCCCCCCCCC (stereo not drawn) , target or system porcine pancreatic PLA2 (Sus scrofa, UniProt P00592).
A) 7.61

Q) Find the measured IC50: item CCCCCCCCCCCCCCCCOCC(COP(=O)([O-])OCC[N+](C)(C)C)OC(=O)C(Br)CCCCCCCCCCCCCCCC (stereo not drawn) , target or system porcine pancreatic PLA2 (Sus scrofa, UniProt P00592).
A) 1.81

Q) Find the measured IC50: item CCCCCCCCCCCCCCCCOCC(O)(COP(=O)([O-])OCC[N+](C)(C)C)CC(N)CC (stereo not drawn) , target or system porcine pancreatic PLA2 (Sus scrofa, UniProt P00592).
A) 34.7

Q) Find the measured IC50: item CCCCCCCCCCCCCCCCOCC(COP(=O)([O-])OCC[N+](C)(C)C)CP(=O)(OCC)OCC (stereo not drawn) , target or system porcine pancreatic PLA2 (Sus scrofa, UniProt P00592).
A) 27.3

Q) Find the measured IC50: item CCCCCCCCCCCCCCCCSCCCOP(=O)([O-])OCC[N+](C)(C)C , target or system porcine pancreatic PLA2 (Sus scrofa, UniProt P00592).
A) 16

====

test system: porcine pancreatic PLA2 (Sus scrofa, UniProt P00592)
Construct: purchased Sigma
assay text: PLA2 assay: in vitro porcine pancreatic phospholipase A2, preincubation of drug+enzyme, substrate 2 nM
Assay type: biochemical
test parameters: preincubation; subs. con. 2; read-out: IC50 (converted)
quantity: IC50 (µM)
Give the value in µM but do not write µM after it.

Before answering, review these 5 worked examples.
CCCCCCCCCCCCCCCCOCC(COP(=O)([O-])OCC[N+](C)(C)C)OP(=O)(O)OCCCCCCCCCCCCCCCC (single isomer, unassigned; more polar)    3.18
CCCCCCCCCCCCCCCC[S+]([O-])CCCOP(=O)([O-])OCC[N+](C)(C)C (stereo not shown)    12.5
CCCCCCCCCCCCCCCCOCC(CC=O)COP(=O)([O-])OCC[N+](C)(C)C (stereo not shown)    26
CCCCCCCCCCCCCCCCOCC(COP(=O)([O-])OCC[N+](C)(C)C)CC(C)(O)CCCCCCCCCCCCCCCC (stereo not shown)    7.89
CCCCCCCCCCCCCCCCOCC(COP(=O)([O-])OCC[N+](C)(C)C)OP(=O)(OC)OCCCCC (single isomer, unassigned)    3.87

Q) What value of measured IC50 is listed for CCCCCCCCCCCCCCCCC#CCC(COCCCCCCCCCCCCCCCC)COP(=O)([O-])OCC[N+](C)(C)C (stereo not shown) ?
A) 6.73
